Ref: paper PMC4552634

Kindly state % Inhibition for each of the entries shown.
- Test system: P. falciparum stage V gametocytes
- Set-up: BacTiter-Glo ATP luminescence viability of purified stage V gametocytes in 384-well plates, per cent inhibition versus DMSO
- TEST PARAMETERS: 48 h, 5 µM; inhibitor
About 3,200 (25%) of roughly 13,000 compounds showed an effect of 50% or more. Some of the results follow.
Numbers only, in %.

Reference set (3 entries):
1. COc1cc(NC(=O)/C=C/c2cccc3cc[nH]c23)ccc1OCCN(C(C)C)C(C)C
14.04
2. COCC(=O)N(Cc1ccccc1-c1cccc(CNCCc2ccccc2)c1)C1CCN(Cc2ccccc2)CC1
103.5
3. CCC(C)NS(=O)(=O)c1ccc2nc(Nc3ccc(C)cc3)n(C(C)C(C)(C)C)c2c1 (stereo not drawn)
-32.2

Give me % Inhibition for each of these molecules, listed below.
1. N#Cc1ccc(N(CC(=O)NCCc2ccc(F)cc2)CC2CC2)c2ccccc12
2. Cc1ccc(C)c(S(=O)(=O)Nc2ccc(Br)cc2C(=O)Nc2cccc(C(F)(F)F)c2)c1
3. O=C(Nc1cccc(C(F)(F)F)c1)c1ccc(S(=O)(=O)NC2CCN(CC3CCCCC3)C2)cc1 (stereo not drawn)
4. Brc1cc(Br)c2c(c1)C(NCCCNC1CCNc3c(Br)cc(Br)cc31)CCN2 (stereo not drawn)
5. CC(C)CCNC(=O)[C@@H]1[C@H]2C(=O)N(C3CCCCC3)C(=O)[C@H]2[C@H]2C=C[C@@H]3C(c4ccc(C(C)(C)C)cc4)=NO[C@@H]3N21
6. COc1cc2c(cc1N1CCN(C)CC1)N(C(=O)Nc1ccc(-c3ccncc3)c(Cl)c1Cl)CC2
7. Clc1ccc(OCCC2CCN(CCCCCCN3CCCCC3)CC2)cc1Cl

1. -38.52
2. 10.24
3. 86.66
4. -3.983
5. -31.5
6. -33.93
7. 100.1

List % Inhibition for every entry below, keeping the order given.
1. O=C(Nc1ccc(C(F)(F)F)cc1)c1ccc(S(=O)(=O)NC2CCCN(CC3CCCCC3)C2)cc1 (stereo not drawn)
2. CCc1ccc(NC(=O)c2cccc(CN3CCCN(Cc4ccc(OC)cc4)CC3)c2)cc1
3. CC1CC(NCCCNc2cc(=O)c3ccccc3[nH]2)c2c(Cl)c(Cl)cc(Cl)c21 (stereo not drawn)
4. CCN(CC)CCN(Cc1ccc(-c2ccc(C(F)(F)F)cc2)cc1)C(=O)Cn1c(CCc2cccc(F)c2F)cc(=O)c(C)c1C
5. O=C(Nc1ccc(C(F)(F)F)cc1)c1ccc(S(=O)(=O)NC2CCN(CC3CCCCC3)CC2)cc1

1: 5.433; 2: -23.52; 3: 41.94; 4: 40.01; 5: -72.67

Give % Inhibition for all molecules that follow.
1. CN1CCC(Oc2cc(NC(=O)Nc3ccc(-c4ccncc4)c(Cl)c3)ccc2Cl)CC1
2. CCN1CCC(N(Cc2ccc(-c3ccc(C(F)(F)F)cc3)cc2)C(=O)Cn2c(CCc3cccc(F)c3F)cc(=O)c3c2CCCC3)CC1
3. CC(C)[C@H](NC(=O)c1c(F)cccc1F)C(=O)Nc1ccc(Cc2nc3ccccc3s2)cc1

1: 28.36; 2: 67.51; 3: 63.22
